readoutLabel: melting point

These recorded examples may help you get a feel for the data.
{"smi": "COc1ccc(-c2cc(C(=O)NCc3ccccn3)c(=O)n(C)n2)cc1", "melting point": "122 to 123 °C"}
{"smi": "[O-][N+]1=C(c2ccccc2F)c2cc(Cl)ccc2C=CC1", "melting point": "138 to 139 °C"}
{"smi": "Cc1ccc(OC(=O)c2cc3cc(S(=O)(=O)N(C)C)c(Cl)c(Cl)c3o2)cc1", "melting point": "176 to 177 °C"}

Here is the next item to consider.
Name the recorded melting point for "O=C(Nc1ccc(-c2ncon2)cc1)OCC(Cl)(Cl)Cl" .
108 to 110 °C
